test: In vitro rat liver S9 stability assay, formation of tafamidis; type: in vitro ADME; conditions: rat liver S9, 37° C., 1 µM test compound
resultType: Formation of tafamidis at 60 min

In the examples that follow, each entry is paired with its recorded Formation of tafamidis at 60 min.
{"columns": ["compound", "reported"],
 "data": [
  ["CN1CCC(OC(=O)c2ccc3nc(-c4cc(Cl)cc(Cl)c4)oc3c2)C1 (centres unmarked) [Compound 7]", "A (A is <25%)"],
  ["O=C(OC1CCN(CC(F)(F)F)C1)c1ccc2nc(-c3cc(Cl)cc(Cl)c3)oc2c1 (centres unmarked) [Compound 151]", "D (D is ≥75%)"],
  ["O=C(OCCCN1CCCC1)c1ccc2nc(-c3cc(Cl)cc(Cl)c3)oc2c1 [Compound 40]", "A (A is <25%)"],
  ["CN(C)[C@H]1C[C@H](OC(=O)c2ccc3nc(-c4cc(Cl)cc(Cl)c4)oc3c2)C1 [Compound 125]", "A (A is <25%)"]
]}

Provide Formation of tafamidis at 60 min for all items below, preserving their order.
1. O=C(OCCCc1ccccn1)c1ccc2nc(-c3cc(Cl)cc(Cl)c3)oc2c1 [Compound 106]
2. O=C(OCCCc1ccncc1)c1ccc2nc(-c3cc(Cl)cc(Cl)c3)oc2c1 [Compound 113]
3. CN1CCCC1CCOC(=O)c1ccc2nc(-c3cc(Cl)cc(Cl)c3)oc2c1 (centres unmarked) [Compound 122]

["D (D is ≥75%)", "D (D is ≥75%)", "A (A is <25%)"]

----------
test: In vivo rat PK: tafamidis in plasma, CSF and brain; design: species or system Male Sprague-Dawley (SD) rats; settings: po administration of test compound, over 24 hrs
Counter-ions that a name gives are not always drawn.
resultType: Tafamidis CSF/Plasma Ratio over 24 hrs (po)

Below, 4 molecules whose answers are already recorded.
{"columns": ["molecule", "reported"],
 "data": [
  ["CC(OC(=O)c1ccc2nc(-c3cc(Cl)cc(Cl)c3)oc2c1)c1ccn(C)n1 (stereo not drawn)", "A (A is < 0.015)"],
  ["O=C(OCCN1CCNCC1)c1ccc2nc(-c3cc(Cl)cc(Cl)c3)oc2c1", "A (A is < 0.015)"],
  ["CCN1CCC(OC(=O)c2ccc3nc(-c4cc(Cl)cc(Cl)c4)oc3c2)C1 (stereo not drawn)", "C (C is ≥0.02)"],
  ["CC(CN(C)C)OC(=O)c1ccc2nc(-c3cc(Cl)cc(Cl)c3)oc2c1 (single isomer, unassigned) [Compound 47]", "A (A is < 0.015)"]
]}

Dear reader, for each entry below, please note its Tafamidis CSF/Plasma Ratio over 24 hrs (po).
1. O=C(NCCF)c1ccc2nc(-c3cc(Cl)cc(Cl)c3)oc2c1
2. O=C(c1ccc2nc(-c3cc(Cl)cc(Cl)c3)oc2c1)N1CCNCC1
3. O=C(OCC1CCOC1)c1ccc2nc(-c3cc(Cl)cc(Cl)c3)oc2c1 (stereo not drawn)

["A (A is < 0.015)", "B (B is ≥0.015 to <0.02)", "B (B is ≥0.015 to <0.02)"]

Go through the items and report each one's Tafamidis CSF/Plasma Ratio over 24 hrs (po).
1. CN1CCCC(OC(=O)c2ccc3nc(-c4cc(Cl)cc(Cl)c4)oc3c2)C1 (stereo not drawn)
2. CCN1CCCC(OC(=O)c2ccc3nc(-c4cc(Cl)cc(Cl)c4)oc3c2)C1 (stereo not drawn)

A (A is < 0.015)
A (A is < 0.015)

Hi! Can you tell me Tafamidis CSF/Plasma Ratio over 24 hrs (po) for each of these molecules?
1. CN(C)[C@H]1CCC[C@@H]1OC(=O)c1ccc2nc(-c3cc(Cl)cc(Cl)c3)oc2c1
2. O=C(OCCc1ncc[nH]1)c1ccc2nc(-c3cc(Cl)cc(Cl)c3)oc2c1

1. A (A is < 0.015)
2. B (B is ≥0.015 to <0.02)

Would you mind listing Tafamidis CSF/Plasma Ratio over 24 hrs (po) for each of the following molecules?
1. O=C(OCCCn1ccnc1)c1ccc2nc(-c3cc(Cl)cc(Cl)c3)oc2c1
2. O=C(OC1CCNCC1)c1ccc2nc(-c3cc(Cl)cc(Cl)c3)oc2c1 [Compound 13, hydrochloride]
3. O=C(OCCCN1CCCCC1)c1ccc2nc(-c3cc(Cl)cc(Cl)c3)oc2c1
4. CN1CCC(OC(=O)c2ccc3nc(-c4cc(Cl)cc(Cl)c4)oc3c2)CC1
5. CNC(=O)c1ccc2nc(-c3cc(Cl)cc(Cl)c3)oc2c1
6. CC(OC(=O)c1ccc2nc(-c3cc(Cl)cc(Cl)c3)oc2c1)C1CCOC1 (stereo not drawn)
7. CN1CCC(OC(=O)c2ccc3nc(-c4cc(Cl)cc(Cl)c4)oc3c2)C1 (stereo not drawn)

1: B (B is ≥0.015 to <0.02); 2: B (B is ≥0.015 to <0.02); 3: A (A is < 0.015); 4: A (A is < 0.015); 5: A (A is < 0.015); 6: A (A is < 0.015); 7: C (C is ≥0.02)
